Each recorded value in this set is attributed to BigSolDB 2.1.

Details: in 2-ethoxyethanol, 283.15 K
METRIC: solubility (mole fraction)
Answers are plain numbers.

q: Specify reported solubility (mole fraction) for the molecule shown: `Oc1ccc(Cl)c2cccnc12`
a: 0.0194

----------
Settings: in ethanol, 288.15 K
METRIC: solubility (mole fraction)
Answers are plain numbers.

q: Specify reported solubility (mole fraction) for the molecule shown: `Oc1ccc(Cl)c2cccnc12`
a: 0.00376

----------
Settings: in 2-ethoxyethanol, 313.15 K
METRIC: solubility (mole fraction)
Answers are plain numbers.

q: Specify reported solubility (mole fraction) for the compound shown: `Oc1ccc(Cl)c2cccnc12`
a: 0.055

----------
Conditions: in 1,4-dioxane, 303.15 K
METRIC: solubility (mole fraction)
Give bare numbers.

q: Specify reported solubility (mole fraction) for the compound shown: `Oc1ccc(Cl)c2cccnc12`
a: 0.0875
